# System: 313798-341-R-J2-PDC spheroids, viability
# procedureSummary: Anticancer human tumor 313798-341-R-J2-PDC patient-derived cervical squamous cell carcinoma cell line growth inhibition [PI3K]; active = viability on the fitted dose curve at most 10% of control; inactive = the rest
# assayConditions: second compound 1 µM; first compound 10 µM; spheroids with HUVEC and MSC
Labels: active, inactive

{"compound": "CC1(C)CCC(Nc2ncc(C(F)(F)F)c(-c3c[nH]c4c(P(C)(C)=O)c(C#N)ccc34)n2)CN1 (stereo unspecified) + Cc1nc(NC(=O)N2CCCC2C(N)=O)sc1-c1ccnc(C(C)(C)C(F)(F)F)c1", "assignedLabel": "inactive"}
{"compound": "CC1(C)CCC(Nc2ncc(C(F)(F)F)c(-c3c[nH]c4c(P(C)(C)=O)c(C#N)ccc34)n2)CN1 (stereo unspecified) + COc1c(OCCCN2CCOCC2)ccc2c3n(c(=NC(=O)c4cnc(N)nc4)nc12)CCN3", "assignedLabel": "active"}
{"compound": "C[C@@H](NC(=O)c1ncnc(N)c1Cl)c1ncc(C(=O)Nc2cc(C(F)(F)F)c(Cl)cn2)s1 + Cc1nc(NC(=O)N2CCCC2C(N)=O)sc1-c1ccnc(C(C)(C)C(F)(F)F)c1", "assignedLabel": "inactive"}
{"compound": "CC(C)NCC(C(=O)N1CCN(c2ncnc3c2C(C)CC3O)CC1)c1ccc(Cl)cc1 (stereo unspecified) + CC(Nc1ncnc2nc[nH]c12)c1cc2cccc(Cl)c2c(=O)n1-c1ccccc1", "assignedLabel": "inactive"}
{"compound": "C=CC(=O)N1CCN(c2nc(=O)n(-c3c(C)ccnc3C(C)C)c3nc(-c4c(O)cccc4F)c(F)cc23)C(C)C1 (stereo unspecified) + COc1c(OCCCN2CCOCC2)ccc2c3n(c(=NC(=O)c4cnc(N)nc4)nc12)CCN3", "assignedLabel": "inactive"}
{"compound": "Cn1nccc1Nc1nccc(-c2ccn(C(CO)c3ccc(Cl)c(F)c3)c(=O)c2)n1 (stereo unspecified) + CC(Nc1ccc2c(c1)OCCn1cc(N3C(=O)OCC3C(F)F)nc1-2)C(N)=O", "assignedLabel": "inactive"}

---

// reported viability, T/C per item
# Tested on: 313798-341-R-J2-PDC spheroids, viability
# procedureSummary: Anticancer human tumor 313798-341-R-J2-PDC cell line growth inhibition [PI3K];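 also: spheroids exposed to compounds for seven days; 100% = DMSO vehicle control viability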
# assayConditions: second compound 0.1 µM; first compound 10 µM; hits give low values; spheroids with HUVEC and MSC
measureName: viability, T/C

{"molecule": "CC1(C)CCC(Nc2ncc(C(F)(F)F)c(-c3c[nH]c4c(P(C)(C)=O)c(C#N)ccc34)n2)CN1 (stereo not drawn) + COc1c(OCCCN2CCOCC2)ccc2c3n(c(=NC(=O)c4cnc(N)nc4)nc12)CCN3", "valueReported": "3.93%"}
{"molecule": "C=CC(=O)N1CCN(c2nc(=O)n(-c3c(C)ccnc3C(C)C)c3nc(-c4c(O)cccc4F)c(F)cc23)C(C)C1 (stereo not drawn) + Cc1nc(NC(=O)N2CCCC2C(N)=O)sc1-c1ccnc(C(C)(C)C(F)(F)F)c1", "valueReported": "92.8%"}
{"molecule": "CC(C)NCC(C(=O)N1CCN(c2ncnc3c2C(C)CC3O)CC1)c1ccc(Cl)cc1 (stereo not drawn) + CC(Nc1ccc2c(c1)OCCn1cc(N3C(=O)OCC3C(F)F)nc1-2)C(N)=O", "valueReported": "27.2%"}

---

// reported viability, T/C per item
# System: 313798-341-R-J2-PDC spheroids, viability
# procedureSummary: Anticancer human tumor 313798-341-R-J2-PDC cell line growth inhibition [PI3K];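 also: spheroids exposed to compounds for seven days; 100% = DMSO vehicle control viability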
# assayConditions: second compound 0.00316 µM; first compound 0.1 µM; hits give low values; spheroids with HUVEC and MSC
measureName: viability, T/C (%)

{"compound": "CC1(C)CCC(Nc2ncc(C(F)(F)F)c(-c3c[nH]c4c(P(C)(C)=O)c(C#N)ccc34)n2)CN1 (stereo unspecified) + CC(Nc1ccc2c(c1)OCCn1cc(N3C(=O)OCC3C(F)F)nc1-2)C(N)=O", "unitString": "%", "valueReported": 45.8}
{"compound": "CCN1CCN(Cc2ccc(Nc3ncc(F)c(-c4cc(F)c5nc(C)n(C(C)C)c5c4)n3)nc2)CC1 + COc1c(OCCCN2CCOCC2)ccc2c3n(c(=NC(=O)c4cnc(N)nc4)nc12)CCN3", "unitString": "%", "valueReported": 111}
{"compound": "CNC(=O)c1ccc(N2C(=S)N(c3ccc(C#N)c(C(F)(F)F)c3)C(=O)C2(C)C)cc1F + CC(Nc1ccc2c(c1)OCCn1cc(N3C(=O)OCC3C(F)F)nc1-2)C(N)=O", "unitString": "%", "valueReported": 87}
{"compound": "Cn1ncc(Cl)c1-c1cc(C(=O)NC(CN)Cc2cccc(F)c2)sc1Cl (stereo unspecified) + COc1c(OCCCN2CCOCC2)ccc2c3n(c(=NC(=O)c4cnc(N)nc4)nc12)CCN3", "unitString": "%", "valueReported": 84.7}
{"compound": "CCCS(=O)(=O)Nc1ccc(F)c(C(=O)c2c[nH]c3ncc(-c4ccc(Cl)cc4)cc23)c1F + COc1c(OCCCN2CCOCC2)ccc2c3n(c(=NC(=O)c4cnc(N)nc4)nc12)CCN3", "unitString": "%", "valueReported": 98.6}
{"compound": "C#Cc1c(F)ccc2cc(O)cc(-c3ncc4c(N5CC6CCC(C5)N6)nc(OCC56CCCN5CC(F)C6)nc4c3F)c12 (stereo unspecified) + CC(Nc1ccc2c(c1)OCCn1cc(N3C(=O)OCC3C(F)F)nc1-2)C(N)=O", "unitString": "%", "valueReported": 96.8}
